Molecular target: Human SARS-CoV-2_Wuhan S (SmT1) (SARS-CoV-2 (Wuhan), UniProt P0DTC2 14-1208)
Assay: SPR, VHH over immobilised S
pKd: −log10 of the molar value.
Returns one of Criterion met or Criterion not met; Criterion met when pKd is >= 9.

Worked cases, answers included:
NRCoV2-SR04 VHH (VHH) VHH: QVQLVESGGGLVQAGGSLRLSCAASGRTFSSHTVGWYRQAPGKQRDLVAAISMGGNTNYADYADSVKGRFTISRDNAKNTLYLQMNSLKPEDTAVYYCNTAALVGNRLLPMATITWGQGTQVTVSS	Criterion met
NRCoV2-S2F3 VHH (VHH) VHH: EVQLVQSGGGLVQAGGSLRLSCATSVRILSVPAMGWYRQAPGKEREMVAVITSGGSTNYADSVKGRFTISRDNAKNTVYLQMNSLKLEDTAVYQCNLRDILSQPFWGQGTQVTVSS	Criterion not met
NRCoV2-05 VHH (VHH) VHH: EVKLVQSGGGLVQPGGSLRLSCAASGFIFSNYAMNWVRQAPGKGLEWVSGINSGGGDTRYADSVKGRFTVSRDNAKNTLYLQMNSLKPEDTGVYYCSKGPVSSYYGSGYDYRGQGTQVTVSS	Criterion not met

Query string: Reported pKd at or above 9? NRCoV2-MRed18 VHH (VHH) VHH: EVQLVESGGGLVQPGGSLRLSCAASTTVFGRNAMGWYRQAPGKERELVATVSDGGTPNYADSVKGRFTISRDNAKNTIYLQMNSLEPEDTAVYYCNYYNYYYGRNFWGQGTQVTVSS
Result string: Criterion not met

Query string: Please give the result for NRCoV2-11 VHH (VHH) VHH: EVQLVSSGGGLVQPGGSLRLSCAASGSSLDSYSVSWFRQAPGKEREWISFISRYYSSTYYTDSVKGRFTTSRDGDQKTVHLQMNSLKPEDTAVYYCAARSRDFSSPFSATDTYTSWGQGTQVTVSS too.
Result string: Criterion met

Query string: Now give it for NRCoV2-MRed11 VHH (VHH) VHH: EVQLVESGGGLVQAGGSLRLSCAASGFTFSSYAMSWHRQAPGKGLEWVSAINSGGGSTSYADSVKGRFAISRDNAKNTLYLQMNSLKPEDTAVYYCATTISDGSSWSTKSYRGQGTQVTVSS too.
Result string: Criterion not met

Taken from patent US20240270826A1.
